System: E. coli BW25113
Assay: Minimum Inhibitory Concentration (MIC) determination, E. coli BW25113
Assay type: cell-based
Set-up: unit not given here
Details: LB broth, 5×10^5 CFU/ml, 37° C., 18 hours, scored by eye
Procedure: MICs were determined by performing two-fold serial dilutions of peptides in LB broth to a final volume of 0.1 ml in round-bottom 96-well assay plates (Corning Life Sciences No 3788). Peptides were initially resuspended in 100% DMSO to 10 mM and subsequently diluted in LB medium to the appropriate concentration. […] Plates were scored by eye, and the lowest compound concentration preventing visible growth was determined to be the MIC.
Bridge positions count the residues as written; N and C are the ends. Square brackets hold non-standard residues; d marks the D form. Peptide text beside a SMILES is read from it. 1Nal = N[C@@H](Cc1cccc2ccccc12)C(=O)O; His(π-Me) = Cn1cncc1C[C@H](N)C(=O)O; NMeY = CN[C@@H](Cc1ccc(O)cc1)C(=O)O; NMeF = CN[C@@H](Cc1ccccc1)C(=O)O; Abu = CC[C@H](N)C(=O)O
Catalogue of MIC E. coli BW25113 WUXI::MIC readings, one per entry.
Measure Name: MIC E. coli BW25113 WUXI::MIC

{"Compound": "CC[C@@H]1NC(=O)[C@H](Cc2ccccc2)NC(=O)CSC[C@@H](C(=O)NCC(N)=O)NC(=O)[C@H](Cc2cncn2C)NC(=O)[C@H](CCCNC(=N)N)NC(=O)[C@H](Cc2c[nH]cn2)NC(=O)[C@H](Cc2ccc(O)cc2)N(C)C(=O)[C@H](CCCNC(=N)N)NC(=O)[C@H](CO)NC(=O)[C@@H](CO)NC(=O)[C@H](Cc2c[nH]cn2)NC(=O)[C@H](Cc2cccc3ccccc23)NC1=O [Compound 27] ({CH2CO}-F[Abu][1Nal]H[dS]SR[NMeY]HR[His(π-Me)]CG-NH2; thioether N-12)", "Measurement Target": "E. coli BW25113", "Recorded Measurement": 13}
{"Compound": "CC[C@H](C)[C@@H]1NC(=O)[C@H]([C@@H](C)O)NC(=O)[C@H](Cc2cncn2C)NC(=O)[C@H](Cc2ccccc2)NC(=O)CSC[C@@H](C(=O)NCC(N)=O)NC(=O)[C@H](Cc2ccc(O)cc2)NC(=O)[C@H](Cc2c[nH]c3ccccc23)NC(=O)[C@H](Cc2ccc(O)cc2)NC(=O)[C@H](CCCCN)NC(=O)[C@H](Cc2ccccc2)NC(=O)C(C)(C)NC(=O)[C@H](CO)NC(=O)[C@H](CCCCN)NC(=O)[C@H](CCCNC(=N)N)NC1=O (racemic) [Compound 61]", "Measurement Target": "E. coli BW25113", "Recorded Measurement": 16}
{"Compound": "CC[C@H](C)[C@@H]1NC(=O)[C@H]([C@@H](C)O)NC(=O)[C@H](Cc2cncn2C)NC(=O)[C@H](Cc2ccccc2)NC(=O)CSC[C@@H](C(=O)NCC(N)=O)NC(=O)[C@H](Cc2ccc(O)cc2)NC(=O)[C@H](Cc2c[nH]c3ccccc23)NC(=O)[C@H](Cc2ccc(O)cc2)NC(=O)[C@H](CCCNC(=N)N)NC(=O)[C@H](Cc2ccccc2)NC(=O)C(C)(C)NC(=O)[C@H](CO)NC(=O)[C@H](CCCCN)NC(=O)[C@H](CCCNC(=N)N)NC1=O (racemic) [Compound 59]", "Measurement Target": "E. coli BW25113", "Recorded Measurement": 16}
{"Compound": "CC(C)[C@@H]1NC(=O)[C@H](Cc2ccccc2)NC(=O)CSC[C@@H](C(=O)NCC(N)=O)NC(=O)[C@H](Cc2cncn2C)NC(=O)[C@H](CCCNC(=N)N)NC(=O)[C@H](Cc2cnc[nH]2)NC(=O)[C@H](Cc2ccc(O)cc2)N(C)C(=O)[C@H](CCCNC(=N)N)NC(=O)[C@H](CO)NC(=O)CNC(=O)[C@H](Cc2cnc[nH]2)NC(=O)[C@H](Cc2c[nH]c3ccccc23)NC1=O (racemic) [Compound 14]", "Measurement Target": "E. coli BW25113", "Recorded Measurement": 37.5}
{"Compound": "CC(C)[C@@H]1NC(=O)[C@H](Cc2ccccc2)NC(=O)CSC[C@@H](C(=O)NCC(N)=O)NC(=O)[C@H](Cc2cncn2C)NC(=O)[C@H](CCCNC(=N)N)NC(=O)[C@H](Cc2cnc[nH]2)NC(=O)[C@H](Cc2ccccc2)N(C)C(=O)[C@H](CCCNC(=N)N)NC(=O)[C@H](CO)NC(=O)CNC(=O)[C@H](Cc2c[nH]cn2)NC(=O)[C@H](Cc2cccc3ccccc23)NC1=O [Compound 6] ({CH2CO}-FV[1Nal]HGSR[NMeF]HR[His(π-Me)]CG-NH2; thioether N-12)", "Measurement Target": "E. coli BW25113", "Recorded Measurement": 2}

---

Test system: E. coli BW25113
Experiment: Minimum Inhibitory Concentration (MIC) determination, E. coli BW25113
Type: cell-based
Set-up: unit not given here
Settings: LB broth, 5×10^5 CFU/ml, 37° C., 18 hours, scored by eye
Bridge positions count the residues as written; N and C are the ends. Square brackets hold non-standard residues; d marks the D form. Peptide text beside a SMILES is read from it. Phe(4-Cl) = N[C@@H](Cc1ccc(Cl)cc1)C(=O)O; 1Nal = N[C@@H](Cc1cccc2ccccc12)C(=O)O; His(π-Me) = Cn1cncc1C[C@H](N)C(=O)O; NMeY = CN[C@@H](Cc1ccc(O)cc1)C(=O)O; Abu = CC[C@H](N)C(=O)O
Measure Name: MIC E. coli BW25113 WUXI::MIC

{"Compound": "CC[C@@H]1NC(=O)[C@H](Cc2ccc(Cl)cc2)NC(=O)CSC[C@@H](C(=O)NCC(N)=O)NC(=O)[C@H](Cc2cncn2C)NC(=O)[C@H](CCCNC(=N)N)NC(=O)[C@H](Cc2c[nH]cn2)NC(=O)[C@H](Cc2ccc(O)cc2)N(C)C(=O)[C@H](CCCNC(=N)N)NC(=O)[C@H](CO)NC(=O)CNC(=O)[C@H](Cc2c[nH]cn2)NC(=O)[C@H](Cc2cccc3ccccc23)NC1=O [Compound 22] ({CH2CO}-[Phe(4-Cl)][Abu][1Nal]HGSR[NMeY]HR[His(π-Me)]CG-NH2; thioether N-12)", "Measure Name": "MIC E. coli BW25113 WUXI::MIC", "Recorded Measurement": 25}

---

Tested on: K. pneumoniae ATCC43816
Assay: Minimum Inhibitory Concentration (MIC) determination, K. pneumoniae ATCC43816
Assay type: cell-based
Design: unit not given here
Settings: LB broth, 5×10^5 CFU/ml, 37° C., 18 hours, scored by eye
Bridge positions count the residues as written; N and C are the ends. Square brackets hold non-standard residues; d marks the D form. Peptide text beside a SMILES is read from it. 1Nal = N[C@@H](Cc1cccc2ccccc12)C(=O)O; His(π-Me) = Cn1cncc1C[C@H](N)C(=O)O; NMeY = CN[C@@H](Cc1ccc(O)cc1)C(=O)O; Abu = CC[C@H](N)C(=O)O
Measure Name: MIC K. pneumoniae ATCC43816 Wuxi::MIC

{"Molecule": "CC[C@@H]1NC(=O)[C@H](Cc2ccccc2)NC(=O)CSC[C@@H](C(=O)NCC(N)=O)NC(=O)[C@H](Cc2cncn2C)NC(=O)[C@H](CCCNC(=N)N)NC(=O)[C@H](Cc2c[nH]cn2)NC(=O)[C@H](Cc2ccc(O)cc2)N(C)C(=O)[C@H](CCCNC(=N)N)NC(=O)[C@H](CO)NC(=O)[C@@H](C)NC(=O)[C@H](Cc2c[nH]cn2)NC(=O)[C@H](Cc2cccc3ccccc23)NC1=O [Compound 26] ({CH2CO}-F[Abu][1Nal]H[dA]SR[NMeY]HR[His(π-Me)]CG-NH2; thioether N-12)", "Measure Name": "MIC K. pneumoniae ATCC43816 Wuxi::MIC", "Recorded Measurement": 25}
{"Molecule": "CC(C)[C@@H]1NC(=O)[C@H](Cc2ccccc2)NC(=O)CSC[C@@H](C(=O)NCC(N)=O)NC(=O)[C@H](Cc2cnc[nH]2)NC(=O)[C@H](CCCNC(=N)N)NC(=O)[C@H](Cc2cnc[nH]2)NC(=O)[C@H](Cc2ccccc2)N(C)C(=O)[C@H](CCCNC(=N)N)NC(=O)[C@H](CO)NC(=O)CNC(=O)[C@H](Cc2cnc[nH]2)NC(=O)[C@H](Cc2c[nH]c3ccccc23)NC1=O (racemic)", "Measure Name": "MIC K. pneumoniae ATCC43816 Wuxi::MIC", "Recorded Measurement": 50}

---

System: E. coli BW25113
Test: Minimum Inhibitory Concentration (MIC) determination, E. coli BW25113
Type: cell-based
Design: unit not given here
Conditions: LB broth, 5×10^5 CFU/ml, 37° C., 18 hours, scored by eye
Bridge positions count the residues as written; N and C are the ends. Square brackets hold non-standard residues; d marks the D form. Peptide text beside a SMILES is read from it. 1Nal = N[C@@H](Cc1cccc2ccccc12)C(=O)O; His(π-Me) = Cn1cncc1C[C@H](N)C(=O)O; NMeY = CN[C@@H](Cc1ccc(O)cc1)C(=O)O; aThr = C[C@H](O)[C@H](N)C(=O)O; Abu = CC[C@H](N)C(=O)O
Measure Name: MIC E. coli BW25113 WUXI::MIC

{"Molecule": "CC[C@@H]1NC(=O)[C@H](Cc2ccccc2)NC(=O)CSC[C@@H](C(=O)NCC(N)=O)NC(=O)[C@H](Cc2cncn2C)NC(=O)[C@H](CCCNC(=N)N)NC(=O)[C@H](Cc2c[nH]cn2)NC(=O)[C@H](Cc2ccc(O)cc2)N(C)C(=O)[C@H](CCCNC(=N)N)NC(=O)[C@H]([C@H](C)O)NC(=O)CNC(=O)[C@H](Cc2c[nH]cn2)NC(=O)[C@H](Cc2cccc3ccccc23)NC1=O [Compound 31] ({CH2CO}-F[Abu][1Nal]HG[aThr]R[NMeY]HR[His(π-Me)]CG-NH2; thioether N-12)", "Measure Name": "MIC E. coli BW25113 WUXI::MIC", "Recorded Measurement": 50}
